- target-system: FXR (Homo sapiens, UniProt Q96RI1)
- Construct: expressed in transfected cells; host or cells: HEK293T
- protocol-details: Gal4-hybrid reporter gene assay FXR
- Type: cell-based
- test-parameters: HEK293T, Gal4-hybrid reporter; Inactive = tested 1–300 μM; mean ± S.E.M., n ≥ 3
recorded-metric: EC50 FXR

> print(dat)
                                   compound                       target.system  recorded.metric  observed.value
1  C/C(=C\C(=O)O)c1ccc(C(F)(F)F)cc1 [compound 91]  FXR (Homo sapiens, UniProt Q96RI1)         EC50 FXR        Inactive
2   O=C(O)c1ccc(Oc2ccccc2)cc1 [compound 44]  FXR (Homo sapiens, UniProt Q96RI1)         EC50 FXR        Inactive
3  O=C(O)/C=C/C(=O)c1ccc(-c2ccccc2)cc1 [4.7]  FXR (Homo sapiens, UniProt Q96RI1)         EC50 FXR        Inactive

====

- target-system: UniProt Q96RI1
- Sequence (Q96RI1 262-486 limits assumed): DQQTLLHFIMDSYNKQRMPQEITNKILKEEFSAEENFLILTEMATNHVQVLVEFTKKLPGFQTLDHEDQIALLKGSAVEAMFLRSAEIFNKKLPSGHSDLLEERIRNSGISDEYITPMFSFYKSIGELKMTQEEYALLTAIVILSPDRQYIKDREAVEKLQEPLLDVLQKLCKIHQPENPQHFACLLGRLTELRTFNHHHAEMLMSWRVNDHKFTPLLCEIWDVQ
- protocol-details: Gal4-hybrid reporter gene assay FXR
- test-parameters: HEK293T, Gal4-hybrid reporter; Inactive = tested 1–300 μM; mean ± S.E.M., n ≥ 3
pEC50: −log10 of the molar value.
recorded-metric: pEC50

> print(dat)
                                   compound  observed.value
1        O=C(O)/C=C/C(=O)c1ccc(Cl)cc1 [4.5]            4.40
2       CCOc1ccc(-c2cc(C(=O)O)co2)cc1 [3.1]            5.89
3  Cc1ccc(C(=O)/C=C/C(=O)O)cc1 [4.4, (E)-4-Oxo-4-(p-tolyl)but-2-enoic acid]            4.57

P = O=C(O)c1ccc(-c2cccc(F)c2)o1 [compound 53]
Q = CCOc1ccc(C(=O)/C=C/C(=O)O)cc1 [2.7]
Query string: I'm curious, which of these has a smaller pEC50 number: P or Q ? Provide the label of your selected option as the answer.
Result string: P

I = Cc1ccccc1C(=O)/C=C/C(=O)O [4.2, (E)-4-Oxo-4-(o-tolyl)but-2-enoic acid]
II = CSc1nccn1-c1ccc(C(=O)O)cc1 [compound 30]
Query string: // max by pEC50 over [ I , II ] Write down the label of the entry you select.
Result string: I
(I: 4.41, II: 3.79)

====

- target-system: THRα (Homo sapiens, UniProt P10827)
- Sequence (P10827 128-410 isoform P10827-2 limits assumed): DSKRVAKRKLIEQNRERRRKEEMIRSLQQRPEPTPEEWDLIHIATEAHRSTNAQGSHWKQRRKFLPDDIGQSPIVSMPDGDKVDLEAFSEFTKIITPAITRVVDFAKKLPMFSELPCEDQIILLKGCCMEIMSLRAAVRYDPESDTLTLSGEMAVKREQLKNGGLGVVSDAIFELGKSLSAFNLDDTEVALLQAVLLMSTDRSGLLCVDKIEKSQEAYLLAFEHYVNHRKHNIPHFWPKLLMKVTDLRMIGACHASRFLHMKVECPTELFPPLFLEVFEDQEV
- protocol-details: Gal4-hybrid reporter gene assay THRα
- test-parameters: HEK293T, Gal4-hybrid reporter; Inactive = tested 1–300 μM; mean ± S.E.M., n ≥ 3
recorded-metric: EC50 (µM)

Answered cases to consult:
> print(dat)
                                   compound  observed.value
1             CCOc1ccc(C(=O)/C=C/C(=O)O)cc1              27
2  Cc1cccc(C(=O)/C=C/C(=O)O)c1 [4.3, (E)-4-Oxo-4-(m-tolyl)but-2-enoic acid]              19
3         COc1ccc(/C=C(/C(=O)O)C(F)(F)F)cc1              55
4          C/C(=C\C(=O)O)c1ccc(C(F)(F)F)cc1              92
5              O=C(O)/C=C/C(=O)c1ccc(F)cc1F              10

A = O=C(O)/C=C/C(=O)c1ccc(Cl)cc1
B = CCc1c(C(=O)O)cnn1-c1ccccc1
Query string: Higher EC50: A or B ? Provide the label of your selected option as the answer.
Result string: B
(B: 112 µM, A: 46 µM)

P = O=C(O)/C=C/C(=O)c1ccc2ccccc2c1
Q = O=C(O)/C=C/C(=O)c1ccc(-c2ccccc2)cc1
Query string: Hi there, can you help? I need to know whether P or Q has lower measured EC50. Answer with the label corresponding to your selection.
Result string: Q
(Q: 16 µM, P: 39 µM)
